Origin of measurements: patent US20260258115A1

Assayed system: RSV prefusion F (preF), DS-Cav1 (Respiratory Syncytial Virus, UniProt P03420 26-513)
Procedure summary: BLI, IgG on anti-human IgG sensor, 100 nM antigen, 1:1 fit
Measured parameter: Kd (nM)
Give the number; nM is assumed, so skip it.

{"columns": ["Binder", "Unit of measurement", "Kd"],
 "data": [
  ["ADI-41476 (antibody, V domains shown) VH: EVQLLESGGGLVQPGGSLRLSCATSGFRFTRYWMHWVRQAPGKGLEWVARINFDGTTTNYADSVKGRFTVSRDNAKNTLYLQINSLRAEDTAVYFCARDQTFLEWLPFESWGQGTLVTVSS VL: QTVVTQEPSFSVSPGGTVTLTCGLTSGSVSTSYYPSWYQQTPGQAPRTLIYNTKTRFSGVPDRFSGSILGNKAALTITGAQADDESDYYCVLYMSGGMVFGGGTKLTVL", "nM", 3.86],
  ["ADI-41464 (antibody, V domains shown) VH: QVQLVESGPGLVRPSGTLSLTCTVSGDSVNSYRWSWIRQSPGKGLEWIGYISYSGETNYNPSLKSRVSISVGTSRYQFFLKLSSVTAADTATYYCARDKTTIFGVSHYYFGVDVWGQGTTVTVSS VL: DIVMTQTPLSLPVTPGEPASISCRSSQSLLKSDGYNSLDWYLQRPGQSPQLLIYLGSNRASGVPARFSGSGSGTDFTLKISRVEAEDVGVYYCMQALQTPFTFGPGTKVEIK", "nM", 1.91]
]}

**Query** Any idea what Kd was measured for ADI-41534 (antibody, V domains shown, also called Ab 806; Antibody Number 806) VH: QVQLVQSGGGVVQPGRSLRLSCAASGFTFSNYAMHWVRQAPGKGLEWVTLISYDGSAQDYADSVKGRITISRDNSKNTLYLQMSSLRPEDTAVYYCARYYCTNDVCSSSALDIWGQGTTVTVSS VL: SYELIQPPSVSVSPGQTASITCSGDKLGNKFTCWYQQKPGQSPVLVIYQDSKRPSGIPERFSGSNSGNTATLTISGTQAMDEADYYCQAWDSSTVVFGGRTKLTVL ?
**Result** 3.31
